target: hERG potassium ion channel (Homo sapiens (Human)); assay: hERG inhibitory activity (automated patch clamp, CHO cell line stably expressing hERG); type: cell-based
Sequence (Q12809 whole entry): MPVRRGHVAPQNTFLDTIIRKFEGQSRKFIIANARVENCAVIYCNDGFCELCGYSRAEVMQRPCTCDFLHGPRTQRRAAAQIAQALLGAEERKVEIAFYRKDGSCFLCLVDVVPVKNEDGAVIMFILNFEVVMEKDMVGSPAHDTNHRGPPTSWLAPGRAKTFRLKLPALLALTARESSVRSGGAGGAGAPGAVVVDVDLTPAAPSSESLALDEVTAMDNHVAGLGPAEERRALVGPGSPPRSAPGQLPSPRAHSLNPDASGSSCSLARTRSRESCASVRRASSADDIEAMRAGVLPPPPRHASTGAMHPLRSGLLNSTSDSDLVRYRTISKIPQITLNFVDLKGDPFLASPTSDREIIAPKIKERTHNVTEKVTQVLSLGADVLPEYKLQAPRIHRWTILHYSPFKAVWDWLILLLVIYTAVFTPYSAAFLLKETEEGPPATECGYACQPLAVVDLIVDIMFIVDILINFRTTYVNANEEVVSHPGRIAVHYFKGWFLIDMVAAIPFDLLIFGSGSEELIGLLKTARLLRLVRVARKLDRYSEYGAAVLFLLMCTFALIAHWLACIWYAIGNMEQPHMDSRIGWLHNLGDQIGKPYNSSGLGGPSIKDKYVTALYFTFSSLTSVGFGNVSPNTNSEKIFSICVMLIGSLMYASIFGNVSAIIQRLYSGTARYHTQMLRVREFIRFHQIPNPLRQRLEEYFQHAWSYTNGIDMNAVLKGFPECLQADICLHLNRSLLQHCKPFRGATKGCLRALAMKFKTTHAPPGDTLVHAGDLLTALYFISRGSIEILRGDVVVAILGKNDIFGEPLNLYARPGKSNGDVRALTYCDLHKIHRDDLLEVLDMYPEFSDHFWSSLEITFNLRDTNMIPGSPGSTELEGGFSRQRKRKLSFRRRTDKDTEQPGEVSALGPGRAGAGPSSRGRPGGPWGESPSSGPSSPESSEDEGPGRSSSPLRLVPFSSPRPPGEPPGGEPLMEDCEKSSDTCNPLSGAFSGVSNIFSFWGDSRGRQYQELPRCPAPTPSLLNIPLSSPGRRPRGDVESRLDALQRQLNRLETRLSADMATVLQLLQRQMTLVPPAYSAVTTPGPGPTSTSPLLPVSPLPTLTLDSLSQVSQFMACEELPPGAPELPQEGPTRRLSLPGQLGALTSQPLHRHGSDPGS
endpoint-name: IC50

>>> result("[2H]C1([2H])Oc2cc3nc4c(c(CNC(=O)C(O)C5CC5)c3cc2O1)Cn1c-4cc2c(c1=O)COC(=O)[C@]2(O)CC (stereo partly drawn)")
"> 30 µM"
>>> result("CC[C@@]1(O)C(=O)OCc2c1cc1n(c2=O)Cc2c-1nc1cc3c(c(F)c1c2CNC(=O)[C@@H](O)C1CC1)OCO3 (single isomer, unassigned) [Compound 37-P1]")
"> 30 µM"

Now consider the entry below.
QUERY: Please supply the value of reported IC50 for the item CC[C@@]1(O)C(=O)OCc2c1cc1n(c2=O)Cc2c-1nc1cc3c(cc1c2CNC(=O)C(O)C1CC1)OCO3 (single isomer, unassigned) [Compound 14-P1]
RESULT: > 30 µM

###

target: UniProtKB Q12809; experiment: hERG inhibitory activity (automated patch clamp, CHO cell line stably expressing hERG); format: cell-based; conditions: read-out: hERG potassium ion channel inhibitory activity IC50; CHO-hERG, SyncroPatch 384i, 0.37-30 μM
pIC50: −log10 of the molar value.
endpoint-name: pIC50

QUERY: Tell me pIC50 of CC[C@@]1(O)C(=O)OCc2c1cc1n(c2=O)Cc2c-1nc1cc3c(cc1c2CNC(=O)C(O)C1CC1)OCO3 (single isomer, unassigned) [Compound 14-P2] when tested on UniProtKB Q12809.
RESULT: < 4.52

###

Hi there, I'd appreciate the recorded IC50 for every entry that follows.
Molecular target: CYP2C9 (Homo sapiens (Human))
Sequence (P11712 whole entry): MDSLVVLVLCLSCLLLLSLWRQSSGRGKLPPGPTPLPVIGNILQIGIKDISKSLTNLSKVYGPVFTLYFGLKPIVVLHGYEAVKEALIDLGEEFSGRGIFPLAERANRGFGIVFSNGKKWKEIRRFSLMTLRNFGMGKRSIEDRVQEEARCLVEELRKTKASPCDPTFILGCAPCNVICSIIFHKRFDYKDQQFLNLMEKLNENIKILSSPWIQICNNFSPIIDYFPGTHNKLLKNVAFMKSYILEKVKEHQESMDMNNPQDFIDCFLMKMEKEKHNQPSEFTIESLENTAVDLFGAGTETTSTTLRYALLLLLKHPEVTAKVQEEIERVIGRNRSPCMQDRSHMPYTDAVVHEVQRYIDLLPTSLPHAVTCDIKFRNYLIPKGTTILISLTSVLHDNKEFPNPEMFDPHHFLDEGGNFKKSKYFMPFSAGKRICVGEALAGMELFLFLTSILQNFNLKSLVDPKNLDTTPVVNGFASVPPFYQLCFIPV
Assay: Inhibitory effect on CYP enzymatic activity in human liver microsomes
Assay type: in vitro ADME
Experimental: The inhibition of CYP2C9, CYP2D6 and CYP3A4 enzymatic activities by the compounds of the present disclosure was determined by the following experimental method. • 1. Human liver microsomes (Corning 452117) • 2. NADPH (Solarbio 705Y021) • 3. […] The reduction in metabolite production in the administration group compared to the control group was compared by the ratio of sample peak area to internal standard peak area, and IC50 value was calculated by Excel XLfit 5.3.1.3. […]

Study these solved cases before continuing.
>>> result("CC[C@@]1(O)C(=O)OCc2c1cc1n(c2=O)Cc2c-1nc1cc3c(c(F)c1c2CNC(=O)[C@@H](O)C1CC1)OCO3 (single isomer, unassigned) [Compound 37-P1]")
"> 50 µM"
>>> result("CC[C@@]1(O)C(=O)OCc2c1cc1n(c2=O)Cc2c-1nc1cc3c(cc1c2CNC(=O)C(O)C1CC1)OCO3 (single isomer, unassigned) [Compound 14-P1]")
"> 50 µM"

Now consider the entry below.
QUERY: Please supply the value of reported IC50 for the item [2H]C1([2H])Oc2cc3nc4c(c(CNC(=O)C(O)C5CC5)c3cc2O1)Cn1c-4cc2c(c1=O)COC(=O)[C@]2(O)CC (stereo partly drawn)
RESULT: > 50 µM

###

tested on: human ovarian cancer cell line PA-1; experiment: Test 2 of anti-proliferative activity against tumor cells (Cell-Titer Glo); format: cell-based; conditions: Homo sapiens, PA-1, 120 h, PA-1 cells, 5 days, Cell-Titer Glo; read-out: PA-1 Anti-proliferative activity IC50
endpoint-name: IC50 (nM)
One number for each entry, in nM.

Study these solved cases before continuing.
>>> numeric_value("CC[C@@]1(O)C(=O)OCc2c1cc1n(c2=O)Cc2c-1nc1cc3c(cc1c2CNC(=O)C(O)C1CC1)OCO3 (stereo partly shown)")
1
>>> numeric_value("CC[C@@]1(O)C(=O)OCc2c1cc1n(c2=O)Cc2c-1nc1cc3c(c(F)c1c2CNC(=O)[C@@H](O)C1CC1)OCO3 [Compound 37-P2]")
1.1
>>> numeric_value("CC[C@@]1(O)C(=O)OCc2c1cc1n(c2=O)Cc2c-1nc1cc3c(c(F)c1c2CNC(=O)[C@@H](O)C1CC1)OCO3 (single isomer, unassigned) [Compound 37-P1]")
0.9

Now consider the entry below.
QUERY: Tell me IC50 of [2H]C1([2H])Oc2cc3nc4c(c(CNC(=O)[C@@H](O)C5CC5)c3cc2O1)Cn1c-4cc2c(c1=O)COC(=O)[C@]2(O)CC [Compound 39-P1] when tested on human ovarian cancer cell line PA-1.
RESULT: 0.9
